Origin of the recorded values: patent US20240270762A1

experimental target: A. baumannii PBP1a (Acinetobacter baumannii)
Sequence (A0ABX6CK30 1-851): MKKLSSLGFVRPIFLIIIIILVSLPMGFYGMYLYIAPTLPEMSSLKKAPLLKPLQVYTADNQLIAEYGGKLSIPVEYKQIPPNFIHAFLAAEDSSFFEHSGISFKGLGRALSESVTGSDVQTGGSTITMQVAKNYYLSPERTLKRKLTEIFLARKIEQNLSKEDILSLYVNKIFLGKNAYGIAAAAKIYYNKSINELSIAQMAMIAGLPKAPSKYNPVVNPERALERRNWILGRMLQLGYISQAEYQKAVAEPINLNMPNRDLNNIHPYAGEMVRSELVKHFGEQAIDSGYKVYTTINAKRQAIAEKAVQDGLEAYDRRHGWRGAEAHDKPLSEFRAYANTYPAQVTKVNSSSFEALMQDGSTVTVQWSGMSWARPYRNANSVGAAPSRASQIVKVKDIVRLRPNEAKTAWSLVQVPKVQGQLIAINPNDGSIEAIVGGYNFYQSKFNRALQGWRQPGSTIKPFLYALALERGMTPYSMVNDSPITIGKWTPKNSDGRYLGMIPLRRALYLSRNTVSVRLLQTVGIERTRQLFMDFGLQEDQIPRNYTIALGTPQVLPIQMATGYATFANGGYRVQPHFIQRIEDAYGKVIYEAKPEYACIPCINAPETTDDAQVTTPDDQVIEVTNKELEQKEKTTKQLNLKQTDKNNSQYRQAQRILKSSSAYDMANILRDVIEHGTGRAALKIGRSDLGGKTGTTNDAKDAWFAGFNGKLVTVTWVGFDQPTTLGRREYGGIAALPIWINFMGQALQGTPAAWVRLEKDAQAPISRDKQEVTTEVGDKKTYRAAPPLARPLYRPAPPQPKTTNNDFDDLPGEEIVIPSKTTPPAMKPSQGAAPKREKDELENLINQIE
method notes: Bocillin-FL competition binding via gel filtration, A. baumannii PBP1a
test conditions: competition binding assay using Bocillin-FL via gel filtration; read-out: A. baumannii PBP1a Potency
pEC50: −log10 of the molar value.
pEC50 values by entry

compound | pEC50
O=C(O)c1c(F)ccc2c1OB(O)[C@@H](NC(=O)C(NC(=O)N1CCN(C3CCN(C(=O)Nc4cc(O)ccc4Cl)CC3)C(=O)C1=O)c1cc(F)c(O)c(O)c1Cl)C2 (some centres unmarked) | > 5.00

[Q] So what's the measured pEC50 for this one? O=C(N[C@@H](C(=O)N[C@H]1Cc2cccc(C(=O)O)c2OB1O)c1ccc(P(=O)(O)O)cc1)c1ccc(O)c(O)c1Cl
[A] 4.30 to 5.00

[Q] So what does the record say about pEC50 for CN(CCN1CCN(C(=O)N[C@@H](C(=O)N[C@H]2Cc3ccc(F)c(C(=O)O)c3OB2O)c2cc(F)c(O)c(O)c2Cl)C(=O)C1=O)Cc1cccc(C(N)=O)c1 ?
[A] 4.30 to 5.00

[Q] Find the recorded pEC50 belonging to O=C(O)c1c(F)ccc2c1OB(O)[C@@H](NC(=O)C(NC(=O)N1CCN(C3CCN(C(=O)Nc4cc(O)ccc4F)CC3)C(=O)C1=O)c1cc(F)c(O)c(O)c1Cl)C2 (some centres unmarked) and report it.
[A] 4.30 to 5.00

[Q] # query: pEC50 of entry O=C(O)c1c(F)ccc2c1OB(O)[C@@H](NC(=O)[C@H](NC(=O)N1CCN(C3CCN(C(=O)Nc4c(F)ccc(O)c4Cl)CC3)C1=O)c1cc(F)c(O)c(O)c1Cl)C2 (single isomer, unassigned)
[A] > 5.00
